tested on: PIK3CB; settings: concentration: 1 μM,replicates: in singlicate; n = 1;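 further: KINOMEscan kinase panel screen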
observed property: %Inh (%)
The response must be a number in % with no trailing unit.

Exercise: Enter recorded %Inh with PIK3CB for `C[C@@H](Oc1cc(-n2cnc3cc(-c4cnn(C)c4)ccc32)sc1C(N)=O)c1ccccc1Cl` here.
Key: 0

Exercise: Enter recorded %Inh with PIK3CB for `CC(=O)Nc1ccc(-c2cc3ncnc(SCC(=O)O)c3s2)cc1` here.
Key: 26

Exercise: Enter recorded %Inh with PIK3CB for `Cn1ccc2ncnc(Oc3ccc(NC(=O)Nc4cccc(C(F)(F)F)c4)c(Cl)c3)c21` here.
Key: 19

Exercise: Enter recorded %Inh with PIK3CB for `Nc1nccc(-c2ccc3c(N)n[nH]c3c2)n1` here.
Key: 0

Exercise: Enter recorded %Inh with PIK3CB for `O=C(NOCC1CC1)c1cc(Br)c(F)c(F)c1Nc1ccc(I)cc1Cl` here.
Key: 0

Exercise: Enter recorded %Inh with PIK3CB for `COc1cc2c(Nc3ccc(NC(=O)c4ccccc4)cc3)ncnc2cc1OCCCN1CCOCC1` here.
Key: 0

Exercise: Enter recorded %Inh with PIK3CB for `Cl.Cl.NC[C@H](CC1CCCCC1)NC(=O)c1ccc(-c2ccnc3[nH]ccc23)s1` here.
Key: 0

Exercise: Enter recorded %Inh with PIK3CB for `CS(=O)(=O)c1cccc(CNc2nc(Nc3ccc4c(c3)[C@@H]3C[C@@H]4CNC3=O)ncc2C(F)(F)F)c1` here.
Key: 0

----------
For each of the compounds below, state its %Inh.
tested on: S6K1; conditions: concentration: 1 μM,replicates: in singlicate; n = 1

Exercise: Identify %Inh associated with the compound C[C@@H](Oc1cc(-n2cnc3ccc(-c4ccncc4)cc32)sc1C(N)=O)c1ccccc1Cl [GSK483724]
Key: 0%

Exercise: Identify %Inh associated with the compound COC(=O)c1cccc(NC(=O)NC2CCN(c3ccnc(Nc4cc(OC)c(OC)c(OC)c4)n3)C2)c1 (stereo not shown) [GSK1379767]
Key: 0%

Exercise: Identify %Inh associated with the compound Cc1cccc2c(-c3ccncc3)c(-c3ccc(F)cc3)nn12.Cl [GW461487]
Key: 5%

Exercise: Identify %Inh associated with the compound `Cc1ccc(C(=O)Nc2ccc(Oc3ccc4nc(NC(=O)C5CC5)cn4c3)c(F)c2)c(=O)n1-c1ccccc1`
Key: 9%

----------
tested on: FGR; conditions: concentration: 1 μM,replicates: in singlicate; n = 1
observed property: %Inh (%)
The response must be a number in % with no trailing unit.

Exercise: Identify %Inh associated with the compound `Cn1cc(-c2cccc3c(N)c(C(N)=O)nnc23)cn1`
Key: 9

Exercise: Identify %Inh associated with the compound `Cl.Nc1n[nH]c2cc(-c3ccccn3)ccc12`
Key: 10

Exercise: Identify %Inh associated with the compound `O=C(Nc1n[nH]c2cc(-c3ccco3)ccc12)C1CC1`
Key: 0

Exercise: Identify %Inh associated with the compound COc1cc(Nc2nccc(N3CCC(NC(=O)c4cccc(C#N)c4)C3)n2)cc(OC)c1OC (stereo not drawn)
Key: 37

Exercise: Identify %Inh associated with the compound `Cc1n[nH]c2cc(Nc3ccnc(Nc4cccc(CN5CCOCC5)c4)n3)ccc12`
Key: 49

Exercise: Identify %Inh associated with the compound `CS(=O)(=O)c1cccc(CNc2nc(Nc3ccc4c(c3)[C@@H]3C[C@@H]4CNC3=O)ncc2C(F)(F)F)c1`
Key: 31

Exercise: Identify %Inh associated with the compound `Cc1ccc(C(=O)Nc2ccc(Oc3ccc4nc(NC(=O)C5CC5)cn4c3)c(F)c2)c(=O)n1-c1ccccc1`
Key: 91

Exercise: Identify %Inh associated with the compound `COC(=O)c1cccc(NC(=O)NC2CCN(c3ccnc(NCc4ccc(F)cc4)n3)CC2)c1`
Key: 11

Exercise: Identify %Inh associated with the compound `Cc1ccc(CC(=O)N2CCc3cc(-c4cn(C)c5ncnc(N)c45)ccc32)cc1`
Key: 37

----------
system: CDKL2; conditions: concentration: 1 μM,replicates: in singlicate; n = 1
observed property: %Inh (%)
The response must be a number in % with no trailing unit.

Exercise: Enter recorded %Inh with CDKL2 for `Cc1ccc2c(-c3ccnc(Nc4ccc(C(F)(F)F)cc4)n3)cnn2n1` here.
Key: 69

Exercise: Enter recorded %Inh with CDKL2 for CS(=O)c1ccc(-c2coc3ccc(-c4n[nH]c(=O)o4)cc23)cc1 (centres unmarked) here.
Key: 0

Exercise: Enter recorded %Inh with CDKL2 for `CCCC(=O)Nc1n[nH]c2ncccc12` here.
Key: 0

Exercise: Enter recorded %Inh with CDKL2 for `C[C@@H]1CCN(C(=O)N2CCCC2)C[C@@H]1N(C)c1ncnc2[nH]ccc12` here.
Key: 11

Exercise: Enter recorded %Inh with CDKL2 for `CN1CCN(CCCNc2nccc(-c3c(-c4ccc(F)cc4)nn4cc(C(N)=O)ccc34)n2)CC1` here.
Key: 31

----------
system: ERK2; construct: gene MAPK1; conditions: concentration: 1 μM,replicates: in singlicate; n = 1
observed property: %Inh (%)
The response must be a number in % with no trailing unit.

Exercise: Identify %Inh associated with the compound `CC(C)S(=O)(=O)N1CCN(Cc2ccc3c(c2)nc(NC(=O)c2ccsc2)n3C[C@H](O)c2ccccc2)CC1`
Key: 0

Exercise: Identify %Inh associated with the compound `Cn1ccc2ncnc(Oc3ccc(NC(=O)Nc4cc(C(C)(C)C)on4)c(Cl)c3)c21`
Key: 5

Exercise: Identify %Inh associated with the compound `O=C(NOCC1CC1)c1cc(Br)c(F)c(F)c1Nc1ccc(I)cc1Cl`
Key: 0

Exercise: Identify %Inh associated with the compound `CC(C)c1nc(-c2cccc(NS(=O)(=O)c3ccccc3)c2)c(-c2ccnc(Nc3ccc4c(c3)CN(C)CC4)n2)s1`
Key: 0

----------
system: QSK; details: concentration: 1 μM,replicates: in singlicate; n = 1
For each of the molecules below, state its %Inh.
The response must be a number in % with no trailing unit.

Exercise: Identify %Inh associated with the molecule Cc1ccc(CC(=O)N2CCc3cc(-c4cn(C)c5ncnc(N)c45)ccc32)cc1 [GSK2634758]
Key: 0

Exercise: Identify %Inh associated with the molecule CNC(=O)c1ccccc1Nc1nc(Nc2cccc(CS(C)(=O)=O)c2)ncc1C.O=CO [GSK1520489]
Key: 22

Exercise: Identify %Inh associated with the molecule CC(C)S(=O)(=O)N1CCN(Cc2ccc3c(c2)nc(NC(=O)c2ccsc2)n3C[C@H](O)c2ccccc2)CC1 [GW635815]
Key: 3

Exercise: Identify %Inh associated with the molecule COC(=O)c1cccc(NC(=O)NC2CCN(c3ccnc(NCc4ccc(F)cc4)n3)CC2)c1 [GSK1379860]
Key: 9

----------
system: PIP5K1A; settings: concentration: 1 μM,replicates: in singlicate; n = 1
Class 1: %Inh at least 10%. Class -1: %Inh below 10%.

Exercise: Quick check, %Inh >= 10%? `CCN1CCN(CCCC(=O)Nc2n[nH]c3nc(-c4ccc(O)cc4)c(Br)cc23)CC1`
Key: 1

Exercise: Quick check, %Inh >= 10%? `CN1CCN(CCCNc2nccc(-c3c(-c4ccc(F)cc4)nn4cc(C(N)=O)ccc34)n2)CC1`
Key: -1

Exercise: Quick check, %Inh >= 10%? CC(C(=O)NC1CCN(c2ccnc(Nc3ccc(F)cc3)n2)C1)c1ccc(Cl)cc1 (stereo not drawn)
Key: 1

Exercise: Quick check, %Inh >= 10%? `Cn1cc(-c2cccc3c(N)c(C(N)=O)nnc23)cn1`
Key: -1

Exercise: Quick check, %Inh >= 10%? `O=C1NCCc2[nH]c(-c3ccncc3)cc21`
Key: -1

Exercise: Quick check, %Inh >= 10%? `CNC(=O)c1ccccc1Nc1nc(Nc2cccc(CS(C)(=O)=O)c2)ncc1C.O=CO`
Key: 1

Exercise: Quick check, %Inh >= 10%? `COc1cccc(OC)c1C(=O)Nc1cccc(-c2nn3ccccc3c2-c2ccnc(Nc3cccc(F)c3)n2)c1`
Key: -1

Exercise: Quick check, %Inh >= 10%? `Cn1ccc2ncnc(Oc3ccc(NC(=O)Nc4cc(C(C)(C)C)on4)c(Cl)c3)c21`
Key: 1

Exercise: Quick check, %Inh >= 10%? `CS(=O)(=O)Nc1ccc(-c2ccnc3[nH]ccc23)cc1`
Key: 1

----------
tested on: EPHA6; conditions: concentration: 1 μM,replicates: in singlicate; n = 1
observed property: %Inh
Report as: number unit

Exercise: Identify %Inh associated with the molecule `c1ccc(Oc2ccc(Nc3ccnc4ccc(-c5ccccn5)cc34)cc2)cc1`
Key: 2%

Exercise: Identify %Inh associated with the molecule COc1cccc(CNC(=O)NC2CCN(c3ccnc(Nc4cc(OC)c(OC)c(OC)c4)n3)C2)c1 (stereo not shown)
Key: 15%

Exercise: Identify %Inh associated with the molecule `C[C@@H]1CNc2c(sc3ccc4nc(-c5ccncc5)ccc4c23)C(=O)N1`
Key: 11%

Exercise: Identify %Inh associated with the molecule `CNC(=O)c1ccccc1Nc1nc(Nc2cccc(CS(C)(=O)=O)c2)ncc1C.O=CO`
Key: 90%
